experimental-system: BRD4(BD1) (Homo sapiens (Human), UniProt O60885)
experiment-description: In vitro enzyme inhibition assay (BRD4 AlphaScreen)
Type: binding
particulars: class symbols A/B/C
Attribute: IC50

COc1ccc(-c2cn(C)c(=O)c3cnccc23)cc1S(N)(=O)=O [Example 56]; > 5 µM
CCS(=O)(=O)c1cccc(-c2cn(C)c(=O)c3cncn23)c1 [Example 133]; > 5 µM
Cn1cc(-c2ccn[nH]2)c2ccccc2c1=O [Example 68]; > 5 µM

Recorded IC50 of Cc1ccc(-c2cn(C)c(=O)c3ccccc23)cc1NS(C)(=O)=O [Example 17] , please.
< 0.5 µM

Same question for Cn1cc(-c2ccc(F)c(NS(C)(=O)=O)c2)c2ccccc2c1=O [Example 37] please.
< 0.5 µM

Same question for Cn1cc(-c2cccc(NS(C)(=O)=O)c2)c2ccncc2c1=O [Example 51] please.
0.5 to 5 µM

Same question for CCS(=O)(=O)c1cccc(-c2cn(C)c(=O)c(N)n2)c1 [Example 105] please.
> 5 µM

Same question for Cc1c(-c2cccc(NS(C)(=O)=O)c2)cn(C)c(=O)c1C [Example 97] please.
0.5 to 5 µM

Same question for CCS(=O)(=O)c1cccc(-c2cn(C)c(=O)c3cc(F)ccc23)c1 [Example 63] please.
0.5 to 5 µM

---

Attribute: pIC50
experimental-system: BRD4(BD1) (Homo sapiens (Human), UniProt O60885)
experiment-description: In vitro enzyme inhibition assay (BRD4 AlphaScreen)
Assay type: binding
particulars: in vitro enzyme inhibition assay
Description: His-tagged BRD4 was cloned, expressed and purified to homogeneity. […] BRD4 binding and inhibition was assessed by monitoring the interaction of biotinylated H4-tetraacetyl peptide (AnaSpec, H4K5/8/12/16(Ac), biotin-labeled) with the target using the AlphaScreen technology (Life Technologies). […] The ability of the compounds disclosed herein to inhibit BRD4 activity was quantified and the respective IC50 value was determined.
pIC50: −log10 of the molar value.

CCS(=O)(=O)Nc1ncc(Oc2ccc(F)cc2F)c(-c2cc(C)c(=O)n(CC3CCC3)c2)n1; 5.30 to 6.30

Recorded pIC50 of "Cn1cc(-c2cc(OCC3CC3)cc(S(C)(=O)=O)c2)c2ccoc2c1=O" , please.
> 6.30

Same question for "Cc1cc(-c2cc(S(C)(=O)=O)cc3c2OCCO3)cn(C)c1=O" please.
5.30 to 6.30

Same question for "CCOc1ccc(S(=O)(=O)CC)cc1-c1cn(C)c(=O)c2cnc(-c3cnn(C)c3)nc12" please.
> 6.30

Same question for "CCS(=O)(=O)c1ccc(NCC2CC2)c(-c2cc(OC)c(=O)n(C)c2)c1" please.
> 6.30

Same question for "Cc1cc(-c2cc(OCC3CC3)cc(S(C)(=O)=O)c2)cn(C)c1=O" please.
> 6.30

Same question for "CCS(=O)(=O)c1ccc(OCC2CC2)c(-c2cn(C)c(=O)cc2C)c1" please.
> 6.30

Same question for "CC(=O)Nc1cc(-c2cccc(NS(C)(=O)=O)c2)cn(C)c1=O" please.
< 5.30

---

experimental-system: BRD4(BD1) (Homo sapiens (Human), UniProt O60885)
experiment-description: In vitro enzyme inhibition assay (BRD4 AlphaScreen)
Assay type: binding
particulars: class symbols A/B/C
Protocol: His-tagged BRD4 was cloned, expressed and purified to homogeneity. […] BRD4 binding and inhibition was assessed by monitoring the interaction of biotinylated H4-tetraacetyl peptide (AnaSpec, H4K5/8/12/16(Ac), biotin-labeled) with the target using the AlphaScreen technology (Life Technologies). […] The ability of the compounds disclosed herein to inhibit BRD4 activity was quantified and the respective IC50 value was determined.
outcome-measure: IC50

Some entries whose results are on file:
CCS(=O)(=O)Nc1ccc(Oc2ccc(F)cc2F)c(-c2cc(C(F)(F)F)c(=O)n(C)c2)c1 [Example 138]; < 0.5 µM
COc1ccc(-c2cn(C)c(=O)c3ccccc23)cc1S(N)(=O)=O [Example 16]; 0.5 to 5 µM
Cn1cc(-c2cccc(S(C)(=O)=O)c2)cc(N)c1=O [Example 107]; > 5 µM

Moving on to another molecule below.
Recorded IC50 of Cn1cc(-c2cc(S(C)(=O)=O)ccc2Oc2ccc(F)cc2F)c2ccccc2c1=O [Example 92] , please.
< 0.5 µM
